target: 17β-Hydroxysteroid Dehydrogenase Type 2 Enzyme (17β-HSD2) (Homo sapiens, UniProt P37059); construct: made in house; host or cells: Sf-9 insect cells (baculovirus); assay: Inhibition of the 17β-hydroxysteroid dehydrogenase type 2 enzyme, 3H-testosterone conversion; type: biochemical; conditions: inhibitor at 10 μM
Sequence (P37059 whole entry): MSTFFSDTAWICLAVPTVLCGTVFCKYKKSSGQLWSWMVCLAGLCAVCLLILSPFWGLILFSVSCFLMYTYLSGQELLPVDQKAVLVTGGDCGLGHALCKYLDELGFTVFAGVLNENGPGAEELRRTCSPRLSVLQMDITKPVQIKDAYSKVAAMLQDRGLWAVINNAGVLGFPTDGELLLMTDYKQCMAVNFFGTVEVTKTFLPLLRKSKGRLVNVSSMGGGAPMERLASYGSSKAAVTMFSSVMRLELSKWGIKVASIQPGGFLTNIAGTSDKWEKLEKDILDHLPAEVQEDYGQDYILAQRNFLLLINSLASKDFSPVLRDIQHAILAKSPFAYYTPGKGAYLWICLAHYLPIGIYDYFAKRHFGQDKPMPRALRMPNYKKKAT
Yes means recorded inhibition at 10 µM is 10% or above; No means it is below 10%.

N#CC(=C1CCN(C(=O)N2CCc3[nH]ncc3C2)CC1)c1ccc(F)cc1F ... Yes
N#CC(=C1CCN(C(=O)N2CCC(O)CC2)CC1)c1n[nH]c2ccc(F)cc12 ... No
CC(=O)N1CCN(C(=O)N2CCC(=C(C#N)c3ccc(Cl)cc3)CC2)CC1 ... Yes
CN(C(=O)N1CCC(=C(C#N)c2ccc(Cl)s2)CC1)C1COC1 ... No
N#CC(=C1CCN(C(=O)N2CCc3[nH]cnc3C2)CC1)c1ccc(F)cc1 ... Yes

-- ask Item CCOC1CCN(C(=O)N2CCC(=C(C#N)c3ccc(F)cc3F)CC2)CC1 with inhibition at 10 µM of 10% or above?
-- reply No

-- ask What about N#CC(=C1CCN(C(=O)N2CCc3sccc3C2)CC1)c1ccc(Cl)s1 ?
-- reply Yes

-- ask Also, N#CC(=C1CCN(C(=O)N2CCC(CO)CC2)CC1)c1ccc(OC(F)(F)F)cc1 please.
-- reply Yes

###

Biological target: Recombinant human AKR1C3 (17β-HSD5) protein (Homo sapiens)
Construct: made in house; host or cells: E. coli
Sequence (P42330 whole entry): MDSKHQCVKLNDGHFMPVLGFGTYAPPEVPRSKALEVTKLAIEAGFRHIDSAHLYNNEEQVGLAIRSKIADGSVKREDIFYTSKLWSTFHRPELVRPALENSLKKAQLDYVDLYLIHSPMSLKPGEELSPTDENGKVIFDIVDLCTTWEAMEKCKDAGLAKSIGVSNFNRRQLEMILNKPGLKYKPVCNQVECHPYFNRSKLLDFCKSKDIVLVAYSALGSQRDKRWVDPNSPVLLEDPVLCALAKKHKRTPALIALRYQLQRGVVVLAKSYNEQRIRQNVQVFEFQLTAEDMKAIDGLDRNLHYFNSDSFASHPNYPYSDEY
Assay: Inhibition of AKR1C3 (17β-hydroxysteroid dehydrogenase type 5) enzyme, fluorescence assay
Type: biochemical
Details: inhibitor at 500 nM
Method: Inhibition of AKR1C3 (17β-Hydroxysteroid Dehydrogenase Type 5) Enzyme Recombinant human AKR1C3 (17β-HSD5) protein (GenBank Accession No. NM_003739.6) produced in E. coli was used for screening. […] The samples were analysed by fluorescent measurement with Tecan Spark microplate reader at wavelengths 420 nm for excitation and 510 nm for emission. […] Background fluorescence was reduced from all the samples and standards. […] Inhibition percentages of samples were calculated using following formula: […]
Consider the following compounds; for each one, report its inhibition at 0.5 µM.
Answers are plain numbers, in %.

N#CC(=C1CCN(C(=O)N2CCC(CO)CC2)CC1)c1ccc(Cl)s1 ... 99
N#CC(=C1CCN(C(=O)N2CCc3[nH]cnc3C2)CC1)c1ccc(F)cc1 ... 96
N#CC(=C1CCN(C(=O)N2CCc3nocc3C2)CC1)c1cc(F)cc(F)c1 ... 101
N#CC(=C1CCN(C(=O)N2CCn3nncc3C2)CC1)c1ccc(Cl)cn1 ... 97
N#CC(=C1CCN(C(=O)N2CCC(S(N)(=O)=O)CC2)CC1)c1ccc(C(F)(F)F)cc1 ... 90

// for each compound below, give its inhibition at 0.5 µM
1. N#CC(=C1CCN(C(=O)N2CCc3ccccc32)CC1)c1ccc(F)cc1
2. COC1CCN(C(=O)N2CCC(=C(C#N)c3cccc(Cl)c3)CC2)CC1
3. CCN(CC)C(=O)N1CCC(=C(C#N)c2ccc(Cl)s2)CC1
4. N#CC(=C1CCN(C(=O)N2CCn3cccc3C2)CC1)c1ccc(F)cc1
5. N#CC(=C1CCN(C(=O)N2CCOCC2)CC1)c1cccc2[nH]ncc12
6. N#CC(=C1CCN(C(=O)N2CCn3ncnc3C2)CC1)c1ccc(Cl)cn1

-- reply
[99, 98, 99, 97, 103, 95]

List inhibition at 0.5 µM for every entry below, keeping the order given.
1. N#CC(=C1CCN(C(=O)N2CCc3nocc3C2)CC1)c1cccc2[nH]ncc12
2. CCOC1CCN(C(=O)N2CCC(=C(C#N)c3cccc(Cl)c3)CC2)CC1
3. N#CC(=C1CCN(C(=O)N2CCOCC2)CC1)c1ccc(F)cc1
4. N#CC(=C1CCN(C(=O)N2C3CCC2COC3)CC1)c1ccc(F)cc1F
5. N#CC(=C1CCN(C(=O)N2CCc3sccc3C2)CC1)c1ccc(Cl)s1
6. N#CC(=C1CCN(C(=O)N2CCc3nocc3C2)CC1)c1cccc(Cl)c1
7. N#CC(=C1CCN(C(=O)N2CCc3nocc3C2)CC1)c1ccc(OC(F)(F)F)cc1

-- reply
1: 98; 2: 98; 3: 99; 4: 96; 5: 99; 6: 98; 7: 100

Batch request: inhibition at 0.5 µM per item, same order as input.
1. N#CC(=C1CCN(C(=O)N2CCC(C(F)(F)F)CC2)CC1)c1ccc(F)cc1
2. N#CC(=C1CCN(C(=O)N2CCC(O)CC2)CC1)c1n[nH]c2ccc(F)cc12
3. CC(=O)n1ncc2c(C(C#N)=C3CCN(C(=O)N4CCc5nocc5C4)CC3)cccc21
4. N#CC(=C1CCN(C(=O)N2CCn3cncc3C2)CC1)c1ccc(OC(F)(F)F)cc1
5. COCC1CCN(C(=O)N2CCC(=C(C#N)c3cccc(Cl)c3)CC2)CC1
6. N#CC(=C1CCN(C(=O)N2CCC(CO)CC2)CC1)c1ccc(F)cc1F

-- reply
[97, 97, 98, 97, 95, 96]

List inhibition at 0.5 µM for every entry below, keeping the order given.
1. N#CC(=C1CCN(C(=O)N2CCC(O)CC2)CC1)c1ccc(OC(F)(F)F)cc1
2. N#CC(=C1CCN(C(=O)N2CCc3nocc3C2)CC1)c1ccc(F)cc1F
3. CCN(CC)C(=O)N1CCC(=C(C#N)c2ccc(Cl)cc2)CC1
4. CCN(CC)C(=O)N1CCC(=C(C#N)c2ccc(OC(F)(F)F)cc2)CC1
5. N#CC(=C1CCN(C(=O)N2CCC(CCCO)CC2)CC1)c1ccc(Cl)cc1
6. N#CC(=C1CCN(C(=O)N2CC(C#N)C2)CC1)c1ccc(F)cc1
7. CCN(CC)C(=O)N1CCC(=C(C#N)c2ccc(C(F)(F)F)cc2)CC1

-- reply
1: 96; 2: 97; 3: 100; 4: 98; 5: 95; 6: 96; 7: 99

For each of the compounds below, state inhibition at 0.5 µM.
1. N#CC(=C1CCN(C(=O)N2CCc3[nH]ncc3C2)CC1)c1ccc(Cl)cn1
2. N#CC(=C1CCN(C(=O)N2CCC(O)CC2)CC1)c1ccc(F)cc1F
3. N#CC(=C1CCN(C(=O)N2CCC(O)CC2)CC1)c1ccc(Cl)cn1
4. COC1CCN(C(=O)N2CCC(=C(C#N)c3ccc(C(F)(F)F)cc3)CC2)CC1

-- reply
98
96
90
100

###

biological target: Recombinant human AKR1C3 (17β-HSD5) protein (Homo sapiens); construct: made in house; host or cells: E. coli; test: Inhibition of AKR1C3 (17β-hydroxysteroid dehydrogenase type 5) enzyme, fluorescence assay; assay type: biochemical; conditions: inhibitor at 500 nM
What inhibition at 0.5 µM was measured for each of the following?
Numbers only, in %.

# example entries with known answers
CCOC1CCN(C(=O)N2CCC(=C(C#N)c3ccc(C(F)(F)F)cc3)CC2)CC1 ... 93
CN(C(=O)N1CCC(=C(C#N)c2ccc(F)cc2)CC1)C1CCOCC1 ... 94
CC(O)C1CCN(C(=O)N2CCC(=C(C#N)c3cccc(Cl)c3)CC2)CC1 (centres unmarked) ... 98

Batch: inhibition at 0.5 µM for all items listed.
1. N#CC(=C1CCN(C(=O)N2CCC(CCO)CC2)CC1)c1ccc(F)cc1
2. COC1CCN(C(=O)N2CCC(=C(C#N)c3cccc4[nH]ncc34)CC2)CC1
3. CN(C)C(=O)N1CCC(=C(C#N)c2ccc(F)cc2)CC1
4. N#CC(=C1CCN(C(=O)N2CCC(CO)CC2)CC1)c1ccc(OC(F)(F)F)cc1
5. N#CC(=C1CCN(C(=O)N2CCc3[nH]ncc3C2)CC1)c1ccc(Cl)cc1

-- reply
[96, 100, 97, 97, 104]

###

I'd appreciate it if you could supply inhibition at 10 µM values for the items below.
Target: 17β-Hydroxysteroid Dehydrogenase Type 2 Enzyme (17β-HSD2) (Homo sapiens, UniProt P37059)
Construct: made in house; host or cells: Sf-9 insect cells (baculovirus)
Experiment: Inhibition of the 17β-hydroxysteroid dehydrogenase type 2 enzyme, 3H-testosterone conversion
Format: biochemical
Settings: inhibitor at 10 μM
Procedure: Inhibition of the 17β-Hydroxysteroid Dehydrogenase Type 2 Enzyme Recombinant human 173-HSD2 protein (GenBank Accession No. NM_002153.3) produced in Sf-9 insect cells with baculovirus was used for screening. Recombinant protein (105 nM/4.5 μg/ml) was incubated in 20 mM KH2PO4 pH 8.5, 1 mM EDTA, complete protease inhibitor cocktail, 1 mM NAD with 56.25 nM testosterone (including ^3H-labelled testosterone) for 30 min at RT, in the presence of the potential inhibitor at 10 μM concentration. […]
Numbers only, in %.

N#CC(=C1CCN(C(=O)N2CCn3nncc3C2)CC1)c1ccc(F)cc1 [Compound 13] ... 7

Please give inhibition at 10 µM for each item listed below.
1. N#CC(=C1CCN(C(=O)N2CCCCC2)CC1)c1ccc(Cl)cc1 [Compound 104]
2. N#CC(=C1CCN(C(=O)N2CCn3nncc3C2)CC1)c1ccc(Cl)cn1 [Compound 163]

-- reply
[0, 9]
